Molecular target: T1, human TL1A (human, UniProt O95150 72-251, limits assumed)
T1 construct: The assays name only 'human TL1A protein'; also called huTL1A; Hu TL1A
T1 sequence (looked up): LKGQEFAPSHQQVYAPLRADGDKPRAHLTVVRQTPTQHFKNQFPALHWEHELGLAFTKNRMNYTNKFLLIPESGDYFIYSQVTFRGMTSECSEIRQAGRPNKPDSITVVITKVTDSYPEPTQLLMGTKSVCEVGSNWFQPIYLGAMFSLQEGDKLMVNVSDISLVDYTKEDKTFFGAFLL
Assay: SPR, mAb captured on anti-human Fc chip, TL1A injected, 1:1 model
Kindly state pKd for each of the entries shown.
Notebook: values listed as pKd are -log10 of the concentration (mol/L).

Looking up anti-TL1A mAb 2G11 (antibody, human IgG1, kappa, N297G, V domains shown, also called iPS 285396) VH: QVQLQESGPGLVKPSETLSLTCTVSGGSISSYFWSWIRQPPGKGLEWIGYIYYSGSTNYNPSLKSRVTMSIDTSKNQFSLKLSSVTAADTAVYYCAREIGSYYGFDYWGQGALVTVSS VL: DIQMTQSPSSLSASVGDRVTITCRASQSINNYLNWYQQKPGIAPKLLIYATSSLQSGVPSRFSGSGSGTDFSLTISSLQPEDFATYFCQQSYSTPRTFGQGTKVEIKR , I found its pKd recorded as 8.96

Looking up anti-TL1A mAb 9C8 (antibody, human IgG1, kappa, N297G, V domains shown, also called PL-39116; iPS 285412) VH: QVQLQESGPGLVKPSETLSLTCTVSGGSISSYFWSWIRQPPGKGLEWIGYIYYSGNTKYNPSLKSRVTISIDTSKNQFSLKLSSVTAADTAVYYCARETGSYYGFDYWGQGTLVTVSS VL: DIQMTQSPSSLSASVGDRVTITCRASQSINNYLNWYQQRPGKAPKLLIYAASSLQSGVPSRFSGSGSGTDFTLTISSLQPGDFATYYCQQSYSTPRTFGQGTKLEIKR , I found its pKd recorded as 9.47

Looking up anti-TL1A mAb 17E9 (antibody, human IgG1, kappa, N297G, V domains shown, also called PL-39113; iPS 284078) VH: QVQLVESGGGVVQPGRSLRLSCAASGFTLSSYGMHWVRQAPGKGLEWVAVMSYDGNNKLYADSVKGRFTISRDNSKKTLYLQMNSLRAEDTAVYYCARDETETLYYYYGIDVWGQGTTVTVSS VL: DIQMTQSPSSLSASVGDRVTITCRASQGISNDLAWYQQKPGKAPKRLIFAASSLQSGVPSRFSGSGSGTEFTLTISSLQPEDFATYYCLQHNSYPPTFGGGTKVEIKR , I found its pKd recorded as 9.66
